biological target: Macrophage migration inhibitory factor (Homo sapiens) (UniProt P14174); test: Inhibitory activity against macrophage migration inhibitory factor tautomerase (MIF) at a concentration of 0.5 mM
Sequence (P14174 whole entry): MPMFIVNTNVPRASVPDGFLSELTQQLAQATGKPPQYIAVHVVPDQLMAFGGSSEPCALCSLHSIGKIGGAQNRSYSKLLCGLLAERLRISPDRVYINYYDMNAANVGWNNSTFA
recordedEndpoint: inhibition (%)

Check out these entries, answers already filled in.
1) O=C1C=C2C(=NC(C(=O)O)C2O)C=C1O (centres undefined) :: 100
2) C[C@@]1(C(=O)O)CC2=CC(=O)C(O)=CC2=N1 :: 29
3) CC1N=C2C=C(O)C(=O)C=C2C1O (centres undefined) :: 92

1 = CC1(C(=O)O)CC2=CC(=O)C(O)=CC2=N1 (racemic)
2 = CCOC(=O)/C=C/C1=CC(O)C(O)=CC1 (centres undefined)
[in] Between 1 and 2 , which one shows the smaller inhibition number? Reply with the label of the item you choose.
[out] 2

* * *

biological target: Macrophage migration inhibitory factor (Homo sapiens) (UniProt P14174); test: Inhibitory activity against macrophage migration inhibitory factor tautomerase (MIF) at a concentration of 0.5 mM
recordedEndpoint: inhibition (%)

1) COC(=O)C1(C)CC2=CC(=O)C(O)=CC2=N1 (racemic) :: 34

1 = C[N+]1=C2C=C(O)C(=O)C=C2C(O)C1 (centres undefined)
2 = CCCC(C(N)=O)C1=CC(O)C(O)=CC1 (centres undefined)
3 = COC(=O)[C@]1(C)CC2=CC(=O)C(O)=CC2=N1
[in] Order field: inhibition | Direction: descending (largest first) # list labels per requested ordering
[out] 1, 3, 2
